In this section we review reported time for the residual activity to become 50% of the maximum activity values for a set of molecules.
- System: hypertension induced by phenylephrine
- PROTOCOL_SUMMARY: In vivo alpha-blocking activity: antagonism of hypertension induced by phenylephrine, intravenous, amyelic rats
- ASSAY_CONTEXT: i.v., 1.6 mg/kg; given in m and s
Numeric answer only, unit min assumed.

Illustrative cases are given below, each with its answer.
INSERT INTO measurements (chemical_string, assay_target, unit_string, reported_measurement) VALUES
  ('COc1cccc(OC)c1OCCN(C)CCOc1cc(C)c(O)cc1C(C)C', 'hypertension induced by phenylephrine', 'min', 120),
  ('Cc1cc(OCCN(C)CCCc2ccccc2)c(C(C)C)cc1O', 'hypertension induced by phenylephrine', 'min', 20),
  ('COc1cccc(OC)c1OCCNCCOc1cc(C)c(O)cc1C(C)C', 'hypertension induced by phenylephrine', 'min', 120);

Consider the molecule shown here: `Cc1cc(OCCNCCCc2ccccc2)c(C(C)C)cc1O` What is its recorded time for the residual activity to become 50% of the maximum activity? 50
